Species on record: Mus musculus
method: Neuroprotective activity against kainate-induced cell death in mouse primary motor neurons by MTT assay
Type: functional
Activity calls are given as the source filed them. How the calls were made is not given here.
observed property: Activity

// N#Cc1ccc(-c2cn(CCn3c(=N)sc4cc(OC(F)(F)F)ccc43)nn2)cc1 : Activity value = inactive

Record N=c1sc2cc(OC(F)(F)F)ccc2n1CCn1cc(-c2cccc3ccccc23)nn1 , field Activity: inactive

Recorded Activity (molecule Nc1nc2ccc(OC(F)(F)F)cc2s1 ): inactive

====

Test system: Cortical neurone
method: Neuroprotective activity against kainate-induced cell death in mouse primary cortical neurons by caspase activation method
Assay type: functional, cell-based
The source made the active and inactive calls. How the calls were made is not given here.
observed property: Activity

Hey, Cortical neurone data for CC(C)CCc1cn(CCn2c(=N)sc3cc(OC(F)(F)F)ccc32)nn1 : Activity came out at inactive

Observed Activity on Cortical neurone, entry N=c1sc2cc(OC(F)(F)F)ccc2n1CCn1cc(C2CCCCC2)nn1 , equals inactive

Result for CCc1ccc(-c2cn(CCn3c(=N)sc4cc(OC(F)(F)F)ccc43)nn2)cc1 , tested on Cortical neurone, Activity: inactive

Bench note, Cortical neurone: N=c1sc2cc(OC(F)(F)F)ccc2n1CCn1cc(-c2ccncc2)nn1 , Activity reads inactive

# value of Activity, Cortical neurone, item COc1ccc(-c2cn(CCn3c(=N)sc4cc(OC(F)(F)F)ccc43)nn2)cc1 = inactive

Noted Activity for Cc1ccccc1-c1cn(CCn2c(=N)sc3cc(OC(F)(F)F)ccc32)nn1 , tested on Cortical neurone: inactive

Param item: N=c1sc2cc(OC(F)(F)F)ccc2n1CCn1cc(-c2ccc(Br)cc2)nn1 ; param system: Cortical neurone; output Activity: inactive

Cortical neurone assay, compound N=c1sc2cc(OC(F)(F)F)ccc2n1CCn1cc(-c2ccc(F)cc2)nn1 , recorded Activity = inactive

The recorded Activity with Cortical neurone for Nc1nc2ccc(OC(F)(F)F)cc2s1 was inactive

The recorded Activity with Cortical neurone for N=c1sc2cc(OC(F)(F)F)ccc2n1CCn1cc(C2CC2)nn1 was inactive

***
The measured Activity that N=c1sc2cc(OC(F)(F)F)ccc2n1CCn1cc(-c2cc(F)c(F)c(F)c2)nn1 showed for Cortical neurone is inactive

// Activity (Cortical neurone) for CCCc1ccc(-c2cn(CCn3c(=N)sc4cc(OC(F)(F)F)ccc43)nn2)cc1 = inactive

Short answer on Cortical neurone for N=c1sc2cc(OC(F)(F)F)ccc2n1CCn1cc(-c2cccc(N)c2)nn1 , Activity: inactive

Assay Cortical neurone, sample N=c1sc2cc(OC(F)(F)F)ccc2n1CCn1cc(-c2ccc(C(=O)O)cc2)nn1 , Activity read: inactive

Note to self: Activity of N=c1sc2cc(OC(F)(F)F)ccc2n1CCn1cc(C2CCCC2)nn1 with Cortical neurone was inactive

Cortical neurone Activity of Cc1cccc(-c2cn(CCn3c(=N)sc4cc(OC(F)(F)F)ccc43)nn2)c1 is inactive

Let me check: N=c1sc2cc(OC(F)(F)F)ccc2n1CCn1cc(-c2ccccc2Br)nn1 , system Cortical neurone, measured Activity is inactive

The value of Activity recorded for CCCCc1ccc(-c2cn(CCn3c(=N)sc4cc(OC(F)(F)F)ccc43)nn2)cc1 when tested on Cortical neurone reads inactive

Data provenance is ChEMBL document CHEMBL4145631.
